# TARGET: GCase (Homo sapiens)
# Construct: endogenous in cells; host or cells: HeLa cells
# Sequence (P04062 40-536): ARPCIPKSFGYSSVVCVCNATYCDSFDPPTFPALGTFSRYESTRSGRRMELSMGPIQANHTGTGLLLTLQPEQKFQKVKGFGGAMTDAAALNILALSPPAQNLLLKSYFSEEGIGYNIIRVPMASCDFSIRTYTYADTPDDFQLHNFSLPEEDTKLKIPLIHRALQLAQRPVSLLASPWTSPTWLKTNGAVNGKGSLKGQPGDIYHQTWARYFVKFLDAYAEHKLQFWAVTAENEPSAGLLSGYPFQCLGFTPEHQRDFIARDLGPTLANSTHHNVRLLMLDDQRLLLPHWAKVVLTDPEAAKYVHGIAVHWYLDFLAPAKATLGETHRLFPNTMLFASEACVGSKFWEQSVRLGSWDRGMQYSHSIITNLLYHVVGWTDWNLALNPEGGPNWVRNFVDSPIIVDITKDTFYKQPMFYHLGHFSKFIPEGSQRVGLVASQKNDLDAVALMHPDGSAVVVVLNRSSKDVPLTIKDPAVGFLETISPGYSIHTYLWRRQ
# PROCEDURE_TEXT: activation of GCase in a live cell PFB assay in HELA cells
# Type: cell-based
# CONDITION: activation of GCase, EC50 ranges
pEC50: −log10 of the molar value.
MEASURED_METRIC: pEC50

# example entries with known answers
{"columns": ["COMPOUND", "TARGET", "pEC50"],
 "data": [
  ["CC1CN(c2cc(C(F)(F)F)ccn2)CC12CCN(c1cnc3cnn(CC(F)F)c3n1)CC2 (centres unmarked)", "GCase (Homo sapiens)", "> 5.00"],
  ["Cc1nccc(N2CCC3(CCN(c4cnc5cnn(CC(F)F)c5n4)CC3)C2)n1", "GCase (Homo sapiens)", "> 5.00"],
  ["CCc1sc(C(F)(F)F)nc1N1CC2(CCN(c3cnc4cnn(CC(F)F)c4n3)CC2)CC1=O", "GCase (Homo sapiens)", "4.30 to 5.00"],
  ["Cc1nc(N2CC3(CCN(c4cnc5cnn(CC(F)F)c5n4)C3)C2)c(F)c(C(F)(F)F)n1", "GCase (Homo sapiens)", "4.00 to 4.30"],
  ["O=C1CC2(CCN(c3cnc4cnn(CC(F)F)c4n3)CC2)C(CCF)N1c1ccnc(C(F)(F)F)c1 (centres unmarked)", "GCase (Homo sapiens)", "4.30 to 5.00"]
]}

Problem: pEC50 of CC(F)(F)c1ncc(N2CC3(CCN(c4cnc5cnn(CC(F)F)c5n4)C3)C2)cn1 on GCase (Homo sapiens)?
Result: > 5.00

Problem: pEC50 of FC(F)(F)c1cc(N2CCC3(CCN(c4cnc5cnn(C6COC6)c5n4)C3)C2)ccn1 (centres unmarked) on GCase (Homo sapiens)?
Result: 4.30 to 5.00

Problem: pEC50 of Cc1nc(N2CC3(CCN(c4cnc5c(n4)n(C)c(=O)n5CC(F)F)C3)C2)cc(C(F)(F)F)n1 on GCase (Homo sapiens)?
Result: > 5.00

Problem: pEC50 of Cn1c(N2CCC3(CCN(c4ccnc(C(F)(F)F)c4)C3)CC2)nc2c(cnn2C2COC2)c1=O on GCase (Homo sapiens)?
Result: > 5.00

Problem: pEC50 of FC(F)Cn1ncc2ncc(N3CCCC4(C3)CN(c3cccnc3C(F)(F)F)C4)nc21 on GCase (Homo sapiens)?
Result: 4.30 to 5.00
